- System: 616215-338-R-J1-PDC complex spheroid viability
- TEST_NAME: Anticancer human tumor 616215-338-R-J1-PDC patient-derived colon adenocarcinoma cell line growth inhibition [POLQ]
- CONDITION_CONTEXT: second compound 0.316 µM; first compound 0.01 µM; stronger effect = lower value
MEASUREMENT_LABEL: viability, T/C (%)
Response body: numeric value in %, unit text excluded.

COMPOUND | MEASUREMENT_LABEL | VALUE_REPORTED
Cn1ncnc1[C@H]1c2n[nH]c(=O)c3cc(F)cc(c23)N[C@@H]1c1ccc(F)cc1 + Cc1cccc(N(C)C(=O)C2C(O)CCN2c2nc(C)cc(C(F)(F)F)c2C#N)c1 | viability, T/C | 105

I would be grateful if you could share the reported viability, T/C for C=CCn1c(=O)c2cnc(Nc3ccc(N4CCN(C)CC4)cc3)nc2n1-c1cccc(C(C)(C)O)n1 + Cc1cccc(N(C)C(=O)C2C(O)CCN2c2nc(C)cc(C(F)(F)F)c2C#N)c1 .
107

I would be grateful if you could share the reported viability, T/C for CC[C@@]1(O)C(=O)OCc2c1cc1n(c2=O)Cc2cc3c(CN(C)C)c(O)ccc3nc2-1 + Nc1ccc(C#CCN(C(=O)Cc2ncc(C(F)(F)F)cc2C(F)(F)F)c2ccc(F)cc2)nn1 .
99.3

I would be grateful if you could share the reported viability, T/C for CCc1c2c(nc3ccc(O)cc13)-c1cc3c(c(=O)n1C2)COC(=O)[C@]3(O)CC + Nc1ccc(C#CCN(C(=O)Cc2ncc(C(F)(F)F)cc2C(F)(F)F)c2ccc(F)cc2)nn1 .
71

I would be grateful if you could share the reported viability, T/C for Cn1ncnc1[C@H]1c2n[nH]c(=O)c3cc(F)cc(c23)N[C@@H]1c1ccc(F)cc1 + Nc1ccc(C#CCN(C(=O)Cc2ncc(C(F)(F)F)cc2C(F)(F)F)c2ccc(F)cc2)nn1 .
97.2

I would be grateful if you could share the reported viability, T/C for CC[C@@]1(O)C(=O)OCc2c1cc1n(c2=O)Cc2cc3c(CN(C)C)c(O)ccc3nc2-1 + COC1C(OC(N)=O)C(O)C(Oc2ccc3c(O)c(NC(=O)c4ccc(O)c(CC=C(C)C)c4)c(=O)oc3c2C)OC1(C)C .
105

I would be grateful if you could share the reported viability, T/C for C=CCn1c(=O)c2cnc(Nc3ccc(N4CCN(C)CC4)cc3)nc2n1-c1cccc(C(C)(C)O)n1 + Nc1ccc(C#CCN(C(=O)Cc2ncc(C(F)(F)F)cc2C(F)(F)F)c2ccc(F)cc2)nn1 .
111

* * *

- Tested on: 616215-338-R-J1-PDC complex spheroid viability
- TEST_NAME: Anticancer human tumor 616215-338-R-J1-PDC cell line growth inhibition [POLQ];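 also: spheroids exposed to compounds for one week before readout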
- CONDITION_CONTEXT: curve of first compound; second compound 0.316 µM
# pIC50 per record follows
Reminder that pIC50 means the negative base-10 logarithm of the concentration expressed in mol/L.

Below are worked cases with known answers.
MOLECULE | TESTED_ON | pIC50
CCCS(=O)(=O)Nc1ccc(F)c(C(=O)c2c[nH]c3ncc(-c4ccc(Cl)cc4)cc23)c1F + Nc1ccc(C#CCN(C(=O)Cc2ncc(C(F)(F)F)cc2C(F)(F)F)c2ccc(F)cc2)nn1 | 616215-338-R-J1-PDC complex spheroid viability | 5.21
CCc1cc2c(N3CCc4c(cc(Cn5ccnc5)cc4-c4cn(C)nc4C(F)(F)F)C3=O)ccnc2c(OC)n1 + Cc1cccc(N(C)C(=O)C2C(O)CCN2c2nc(C)cc(C(F)(F)F)c2C#N)c1 | 616215-338-R-J1-PDC complex spheroid viability | 5.32
CC1COCCN1c1cc(-c2ccnn2C)c2ccnc(-c3ccn[nH]3)c2n1 (centres undefined) + COC1C(OC(N)=O)C(O)C(Oc2ccc3c(O)c(NC(=O)c4ccc(O)c(CC=C(C)C)c4)c(=O)oc3c2C)OC1(C)C | 616215-338-R-J1-PDC complex spheroid viability | 6.21

I would be grateful if you could share the reported pIC50 for CCc1cc2c(N3CCc4c(cc(Cn5ccnc5)cc4-c4cn(C)nc4C(F)(F)F)C3=O)ccnc2c(OC)n1 + Nc1ccc(C#CCN(C(=O)Cc2ncc(C(F)(F)F)cc2C(F)(F)F)c2ccc(F)cc2)nn1 .
5.28

I would be grateful if you could share the reported pIC50 for COc1cc(C2c3cc4c(cc3C(OC3OC5COC(C)OC5C(O)C3O)C3COC(=O)C23)OCO4)cc(OC)c1O (centres undefined) + Nc1ccc(C#CCN(C(=O)Cc2ncc(C(F)(F)F)cc2C(F)(F)F)c2ccc(F)cc2)nn1 .
6.14

I would be grateful if you could share the reported pIC50 for CNCc1ccc(-c2[nH]c3cc(F)cc4c3c2CCNC4=O)cc1 + Nc1ccc(C#CCN(C(=O)Cc2ncc(C(F)(F)F)cc2C(F)(F)F)c2ccc(F)cc2)nn1 .
5.11

I would be grateful if you could share the reported pIC50 for CC1COCCN1c1cc(C2(S(C)(=N)=O)CC2)nc(-c2ccnc3[nH]ccc23)n1 (centres undefined) + Nc1ccc(C#CCN(C(=O)Cc2ncc(C(F)(F)F)cc2C(F)(F)F)c2ccc(F)cc2)nn1 .
5.17

I would be grateful if you could share the reported pIC50 for COc1cc(C2c3cc4c(cc3C(OC3OC5COC(C)OC5C(O)C3O)C3COC(=O)C23)OCO4)cc(OC)c1O (centres undefined) + Cc1cccc(N(C)C(=O)C2C(O)CCN2c2nc(C)cc(C(F)(F)F)c2C#N)c1 .
5.02

I would be grateful if you could share the reported pIC50 for CCc1c2c(nc3ccc(O)cc13)-c1cc3c(c(=O)n1C2)COC(=O)[C@]3(O)CC + Cc1cccc(N(C)C(=O)C2C(O)CCN2c2nc(C)cc(C(F)(F)F)c2C#N)c1 .
7.07

* * *

- System: 616215-338-R-J1-PDC complex spheroid viability
- TEST_NAME: Anticancer human tumor 616215-338-R-J1-PDC cell line growth inhibition [POLQ];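 also: spheroids exposed to compounds for one week before readout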;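 as to viability, T/C: percent viability relative to DMSO vehicle wells taken as 100%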
- CONDITION_CONTEXT: second compound 0.1 µM; first compound 10 µM; stronger effect = lower value
MEASUREMENT_LABEL: viability, T/C (%)
Response body: numeric value in %, unit text excluded.

Below are worked cases with known answers.
COMPOUND | viability, T/C, %
COc1ccc([C@@H](O)c2cc(-c3ncnc4cc(N5CCOCC5)ccc34)c(F)cc2Cl)nn1 + Nc1ccc(C#CCN(C(=O)Cc2ncc(C(F)(F)F)cc2C(F)(F)F)c2ccc(F)cc2)nn1 | 47.7
COc1cccc2c1C(=O)c1c(O)c3c(c(O)c1C2=O)CC(O)(C(=O)CO)CC3OC1CC(N)C(O)C(C)O1 (stereo not drawn) + Cc1cccc(N(C)C(=O)C2C(O)CCN2c2nc(C)cc(C(F)(F)F)c2C#N)c1 | 0.26
COc1cc2cc(C(=O)CCC(=O)O)sc2cc1OC + Nc1ccc(C#CCN(C(=O)Cc2ncc(C(F)(F)F)cc2C(F)(F)F)c2ccc(F)cc2)nn1 | 108
Nc1ccn(C2OC(CO)C(O)C2(F)F)c(=O)n1 (stereo not drawn) + Nc1ccc(C#CCN(C(=O)Cc2ncc(C(F)(F)F)cc2C(F)(F)F)c2ccc(F)cc2)nn1 | 12.6
CC1COCCN1c1cc(-c2ccnn2C)c2ccnc(-c3ccn[nH]3)c2n1 (stereo not drawn) + Cc1cccc(N(C)C(=O)C2C(O)CCN2c2nc(C)cc(C(F)(F)F)c2C#N)c1 | 50.5

I would be grateful if you could share the reported viability, T/C for COc1cc(C2c3cc4c(cc3C(OC3OC5COC(C)OC5C(O)C3O)C3COC(=O)C23)OCO4)cc(OC)c1O (stereo not drawn) + Nc1ccc(C#CCN(C(=O)Cc2ncc(C(F)(F)F)cc2C(F)(F)F)c2ccc(F)cc2)nn1 .
27.7

I would be grateful if you could share the reported viability, T/C for O=c1[nH]cc(F)c(=O)[nH]1 + Cc1cccc(N(C)C(=O)C2C(O)CCN2c2nc(C)cc(C(F)(F)F)c2C#N)c1 .
63.4

I would be grateful if you could share the reported viability, T/C for O=C(c1cc(Cc2n[nH]c(=O)c3ccccc23)ccc1F)N1CCN(C(=O)C2CC2)CC1 + Cc1cccc(N(C)C(=O)C2C(O)CCN2c2nc(C)cc(C(F)(F)F)c2C#N)c1 .
94.3

* * *

# viability, T/C per record follows
- Tested on: 616215-338-R-J1-PDC complex spheroid viability
- TEST_NAME: Anticancer human tumor 616215-338-R-J1-PDC cell line growth inhibition [POLQ];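 also: spheroids exposed to compounds for one week before readout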;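 as to viability, T/C: percent viability relative to DMSO vehicle wells taken as 100%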
- CONDITION_CONTEXT: second compound 3.16 µM; first compound 1 µM; stronger effect = lower value
Response body: numeric value in %, unit text excluded.

MOLECULE | viability, T/C / %
COc1cc2cc(C(=O)CCC(=O)O)sc2cc1OC + Nc1ccc(C#CCN(C(=O)Cc2ncc(C(F)(F)F)cc2C(F)(F)F)c2ccc(F)cc2)nn1 | 103
O=c1[nH]cc(F)c(=O)[nH]1 + Cc1cccc(N(C)C(=O)C2C(O)CCN2c2nc(C)cc(C(F)(F)F)c2C#N)c1 | 63.6

For the record O=C(Nc1ccc(O)c(NS(=O)(=O)c2ccc(F)cc2)c1)c1ccc(-c2ccccc2)cc1 + Nc1ccc(C#CCN(C(=O)Cc2ncc(C(F)(F)F)cc2C(F)(F)F)c2ccc(F)cc2)nn1 , what value of viability, T/C is listed for 616215-338-R-J1-PDC complex spheroid viability?
102

For the record O=C(Nc1ccc(O)c(NS(=O)(=O)c2ccc(F)cc2)c1)c1ccc(-c2ccccc2)cc1 + COC1C(OC(N)=O)C(O)C(Oc2ccc3c(O)c(NC(=O)c4ccc(O)c(CC=C(C)C)c4)c(=O)oc3c2C)OC1(C)C , what value of viability, T/C is listed for 616215-338-R-J1-PDC complex spheroid viability?
105

For the record COc1cccc2c1C(=O)c1c(O)c3c(c(O)c1C2=O)CC(O)(C(=O)CO)CC3OC1CC(N)C(O)C(C)O1 (stereo not given) + Nc1ccc(C#CCN(C(=O)Cc2ncc(C(F)(F)F)cc2C(F)(F)F)c2ccc(F)cc2)nn1 , what value of viability, T/C is listed for 616215-338-R-J1-PDC complex spheroid viability?
23.5
